Reference for the values: patent US20250109203A1

target: human γδ TCR (Vγ9Vδ2) on human Vδ2+ γδ T cells (human) (UniProt A0JD36); experiment: flow cytometry on expanded human Vδ2+ γδ T cells, nonlinear fit
Metric name: pKd
The meaning of pKd here: minus log10 of the concentration in molar units.

Example results:
- Binder: "hu1D7v4 VHH-hIgG1 Fc-NNT (monomeric) (VHH) VHH: EVQLLESGGGEVQPGGSLRLSCVASRFKISQYRMGWYRQAPGKGLEWVAHISNTGDAAEYVDSVKGRFTISRDSTKNAVYLQMSSLRAEDTAVYKCNSVEDILAWGQGTLVTVKP"
  Measurement: 5.05
- Binder: "hu1D7v102 VHH-hIgG1 Fc-NNT (monomeric) (VHH) VHH: EVQLLESGGGEVQPGGSLRLSCVASRGKISQYRMGWYRQAPGKELEWVAHISNTGDAAEYVDSVKDRFTISRDSTKNALYLQMSSLRAEDTAVYKCNTVEDILAWGQGTLVTVRP"
  Measurement: 7.75
- Binder: "1D7 VHH-hIgG1 Fc-NNT (monomeric, parental) (VHH) VHH: QVQLVQSGGGLVQPGGSLRLSCVASRGKISQYRMGWYRQAPGKQRELVAHISNTGDAAEYVDSVKGRFTISRDSTKNAVYLQMNSLKPEDTAVYKCNSVEDILAWGQGTQVTVKP"
  Measurement: 8.22

Return reported pKd; argument: 1D7v112 VHH-hIgG1 Fc-NNT (monomeric) (VHH) VHH: EVQLLESGGGEVQPGGSLRLSCVASRGKISQYRMGWYRQAPGKERELVAHISNTGDAAEYVDVVKDRFTISRDSTKNALYLQMSSLRAEDTAVYKCNSVEDILAWGQGTLVTVRP
6.64

One more binder: hu1D7v158-2 VHH-hIgG1 Fc-NNT (monomeric) (VHH) VHH: EVQLLESGGGEVQPGGSLRLSCVASRGKISQYRMGWYRQAPGKQRELVSHISNTGDAAEYVAPVKGRFTISRDNAKNALYLQMNSLRAEDTAVYKCNTVEDILAWGQGTLVTVEP
8.48

hu1D7v158-9 VHH-hIgG1 Fc-NNT (monomeric) (VHH) VHH: EVQLLESGGGEVQPGGSLRLSCVASRGKISQYRMGWYRQAPGKEREFVAHISNTGDAAEYVAPVKGRFTISRDNAKNALYLQMNSLRAEDTAVYKCNTVEDILAWGQGTLVTVEP , same question.
7.70

Same for hu1D7v79 VHH-hIgG1 Fc-NNT (monomeric) (VHH) VHH: EVQLLESGGGEVQPGGSLRLSCVASRGKISQYRMGWYRQAPGKERELVAHISNTGDAAEYVDSVKDRFTISRDSTKNALYLQMSSLRAEDTAVYKCNLVEDILAWGQGTLVTVRP
6.30

Another binder to look at: hu1D7v96 VHH-hIgG1 Fc-NNT (monomeric) (VHH) VHH: EVQLLESGGGEVQPGGSLRLSCVASRGKISQYRMGWYRQAPGKERELVAHISNTGDAAEYVYSVKDRFTISRDSTKNALYLQMSSLRAEDTAVYKCNSVEDILAWGQGTLVTVRP
6.72
